TARGET_ENTITY: T1, Human complement C4 protein (Millipore Sigma, Cat. 204886) (human, UniProt P0C0L4 20-675; P0C0L4 680-1446; P0C0L4 1454-1744, limits assumed, natural sulfotyrosines)
T1 construct: mature
EXPERIMENTAL_DETAILS: ELISA, 50 nM mAb
So I've got a bunch of binders here, and I need their binding normalized to PSGL-1 values.

Inquiry: Please indicate binding normalized to PSGL-1 recorded for 09C10 (antibody, V domains shown) VH: EVKLLESGGGLIQPGGSLRLSCAASGFTVSNNYVTWVRQAPGKGLELVSSIYSGGGTYYADSVKGRFTISRDNSKNTVYLQMNSLRADDTAVYYCARNVPVTNFGYWGQGTLVTVSS VL: DIVMTQSPLSLPVTLGQPASISCRSSQSLVYRDGNTYLNWFQQRPGQSPRRLIYKVSNRDSGVPDRFSGSGSGTDFTLKISRVEAEDVGVYYCMQLTHWPPGFAQGTKLEIK
Reply text: 0.88

Inquiry: Please indicate binding normalized to PSGL-1 recorded for 01A11 (antibody, IgG4, V domains shown) VH: EVKLLESGGGLVQPGGSLRLSCATSGFSFSDYWMSWVRQAPGKGLEWVASIKKDGSEKYYVDSVKGRFTISRDNAKNSLYVQMNSLRAEDTAIYYCVVFGAWGPGTLVTVSS VL: DIVMTQTPLSLPVTLGQPASISCRSGRSLVYSDGNTYLNWFQQRPGQSPRRLIYKVSNRDSGVPDRFSGGGSGTDFTLKISRVEAEDVAIYYCMQGTHWPPTFGQGTKLEIK
Reply text: 0.79

Inquiry: Please indicate binding normalized to PSGL-1 recorded for 05D01 (antibody, V domains shown) VH: QVTLRESGGALVQPGGSLRLSCAASGFPLRSNAMTWVRQAPGKGLEWVSDIRGNGASTYYADSVKGRFTISRDDSNNILFLQMNSLRAEDTAVYYCVGHGSSSYWGQGTLVTVSS VL: DVVMTQSPLSLPVTLGQPASISCRSSQSLVYRDGNIYLNWFQQRPGQSPRRLIYKVSNRDSGVPDRFSGSGSGTDFTLKISRVEAEDVGVYYCMQLTHWPPGFAQGTKLEIK
Reply text: 0.08
